Target: Aminopeptidase N (Plasmodium falciparum FcB1/Columbia, UniProt O96935)
Sequence (O96935 whole entry): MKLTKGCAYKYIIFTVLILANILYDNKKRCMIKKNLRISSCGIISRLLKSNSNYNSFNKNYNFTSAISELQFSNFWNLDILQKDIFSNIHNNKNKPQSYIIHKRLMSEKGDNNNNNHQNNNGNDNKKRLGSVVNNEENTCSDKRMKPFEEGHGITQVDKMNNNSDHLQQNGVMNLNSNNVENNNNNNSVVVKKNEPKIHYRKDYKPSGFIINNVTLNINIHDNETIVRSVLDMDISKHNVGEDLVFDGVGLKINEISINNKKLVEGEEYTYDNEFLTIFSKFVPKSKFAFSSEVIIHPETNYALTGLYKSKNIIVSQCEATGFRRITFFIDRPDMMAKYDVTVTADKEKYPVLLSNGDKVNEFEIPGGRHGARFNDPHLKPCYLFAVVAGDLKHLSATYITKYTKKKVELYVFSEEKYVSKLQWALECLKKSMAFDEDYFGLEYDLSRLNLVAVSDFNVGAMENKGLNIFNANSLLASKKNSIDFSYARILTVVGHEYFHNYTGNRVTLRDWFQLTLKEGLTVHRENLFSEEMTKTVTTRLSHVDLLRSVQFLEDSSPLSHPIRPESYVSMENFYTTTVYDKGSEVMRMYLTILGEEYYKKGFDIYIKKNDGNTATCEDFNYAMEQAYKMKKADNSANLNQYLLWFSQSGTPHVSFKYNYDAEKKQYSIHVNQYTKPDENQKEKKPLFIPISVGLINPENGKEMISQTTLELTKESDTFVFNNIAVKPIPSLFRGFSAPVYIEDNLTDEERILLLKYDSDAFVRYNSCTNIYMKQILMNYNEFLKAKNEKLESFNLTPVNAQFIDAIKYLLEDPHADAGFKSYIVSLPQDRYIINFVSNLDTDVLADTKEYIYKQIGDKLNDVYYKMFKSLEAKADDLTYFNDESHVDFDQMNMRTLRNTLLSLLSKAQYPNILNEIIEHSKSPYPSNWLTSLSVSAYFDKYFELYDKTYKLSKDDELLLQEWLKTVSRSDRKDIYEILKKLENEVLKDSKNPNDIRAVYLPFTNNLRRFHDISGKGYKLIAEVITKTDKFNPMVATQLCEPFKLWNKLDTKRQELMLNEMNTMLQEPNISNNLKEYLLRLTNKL
Assay: malaria alanyl aminopeptidase activity blockers – biochemical, fluorogenic H-Leu-NHMec substrate, 1536-well (AID 1445)
Set-up: species or system Plasmodium falciparum 3D7, 3D7
The source made the active and inactive calls. The rule behind the calls is not given here.
Reported values of IC50 for individual entries

CCOC(=O)C1=C(Nc2ccc(OC)cc2)S/C(=C\c2ccc(OCC(=O)O)c(OCC)c2)C1=O : 36.3 µM (active)
Nc1nonc1C(=O)N/N=C/c1cc(Br)ccc1O : 3.45 µM (active)
CCOP(=O)(OCC)c1nc(-c2cccc([N+](=O)[O-])c2)oc1N1CCCCC1 : 50.1 µM (active)

Q) Value wanted: IC50 (Aminopeptidase N (Plasmodium falciparum FcB1/Columbia, UniProt O96935)) of entry Cc1c(O)c(CN2CCCCC2)cc2c3c(c(=O)oc12)CCC3
A) 37.5 µM (active)

Q) Also O=C(O)C/C(=C\c1ccc(Cl)cc1)c1nc2ccccc2o1 , if possible.
A) 33.9 µM (active)

Q) Also CC(C)C[C@H](NC(=O)c1[nH]cnc1C(=O)NC1CCN(C(=O)OC(C)(C)C)CC1)C(=O)OC(C)(C)C , if possible.
A) 63.9 µM (active)

// data source = ChEMBL document CHEMBL1201862
